Assignment: determine reported CC50 for the given molecules.
- Test method notes: Cytotoxicity against Huh 5-2 cells
- Format: cell-based
- Experimental conditions: human

Consider the worked cases shown below.
>>> value("Brc1ccc(Cn2ccc3nc(-c4ccccc4)nc-3c2)cc1")
"38 µM"
>>> value("Brc1ccc(Cn2ccc3nc(/C=C/c4ccccc4)nc-3c2)cc1")
"2.5 µM"
>>> value("Brc1ccc(Cn2ccc3nc(Cc4ccccc4)nc-3c2)cc1")
"> 132 µM"
>>> value("Brc1ccc(Cn2ccc3nc(-c4ccccc4Br)nc-3c2)cc1")
"36 µM"

State recorded CC50 for all listed molecules.
1. Brc1ccc(Cn2ccc3nc(-c4cccnc4)nc-3c2)cc1
2. Brc1ccc(Cn2ccc3nc(-c4cccc(Br)c4)nc-3c2)cc1
3. CN(C)c1cccc(-c2nc3ccn(Cc4ccc(Br)cc4)cc-3n2)c1
4. Cc1ccccc1-c1nc2ccn(Cc3ccc(Br)cc3)cc-2n1

Result:
1: 126 µM; 2: > 113 µM; 3: 79 µM; 4: 21 µM

Dear reader, for each entry below, please note its CC50.
1. Brc1ccc(Cn2ccc3nc(CCc4ccccc4)nc-3c2)cc1
2. Brc1ccc(Cn2ccc3nc(-c4cc(Br)cc(Br)c4)nc-3c2)cc1
3. CCc1nc2ccn(Cc3ccc(Br)cc3)cc-2n1

Result:
1. 7.6 µM
2. > 96 µM
3. 92 µM

* * *

- Test method notes: Cytotoxicity against Huh 5-2 cells
- Format: cell-based
- Experimental conditions: human
I'd appreciate it if you could supply CC50 values for the items below.
Answers are plain numbers, in µM.

>>> value("Brc1ccc(Cn2ccc3nc(CCCc4ccccc4)nc-3c2)cc1")
12

Each of the following entries comes with a recorded value; kindly state CC50 for each.
1. Brc1ccc(Cn2ccc3nc(-c4ccc(Br)s4)nc-3c2)cc1
2. Fc1ccccc1-c1nc2ccn(Cc3ccc(I)cc3)cc-2n1
3. Clc1ccccc1-c1nc2ccn(Cc3ccc(Br)cc3)cc-2n1
4. Brc1ccc(Cn2ccc3nc(CSc4ccccc4)nc-3c2)cc1
5. Brc1ccc(Cn2ccc3nc(-c4cccc(I)c4)nc-3c2)cc1
6. Brc1ccc(Cn2ccc3nc(CCCCc4ccccc4)nc-3c2)cc1
7. COc1cccc(-c2nc3ccn(Cc4ccc(Br)cc4)cc-3n2)c1

Result:
1. 18
2. 58
3. 43
4. 9.7
5. 12
6. 2.2
7. 28

Hi there! I need CC50 for each item below, if you can.
1. Brc1ccc(Cn2ccc3nc(-c4ccncc4)nc-3c2)cc1
2. Brc1ccc(Cn2ccc3nc(COc4ccccc4)nc-3c2)cc1

Result:
1: 38; 2: 35

* * *

- Test method notes: Selectivity index, ratio of CC50 for Huh 5-2 cells to EC50 for HCV
- Type: functional
Reported endpoint: Ratio CC50/EC50

Some entries whose results are on file:
>>> value("Cc1ccc(-c2nc3ccn(Cc4ccc(Br)cc4)cc-3n2)cc1")
2
>>> value("Brc1ccc(Cn2ccc3nc(-c4ccc5ccccc5c4)nc-3c2)cc1")
2
>>> value("Brc1ccc(Cn2ccc3nc(/C=C/c4ccccc4)nc-3c2)cc1")
">2"

Hello, I would appreciate it if you could give Ratio CC50/EC50 for each entry below.
1. Clc1ccccc1-c1nc2ccn(Cc3ccc(Br)cc3)cc-2n1
2. Clc1cccc(-c2nc3ccn(Cc4ccc(Br)cc4)cc-3n2)c1
3. Fc1ccccc1-c1nc2ccn(Cc3ccc(Cl)cc3)cc-2n1
4. Brc1ccc(Cn2ccc3nc(COc4ccccc4)nc-3c2)cc1
5. Brc1ccc(Cn2ccc3nc(CCCc4ccccc4)nc-3c2)cc1

Result:
2
>2
1.5
1.5
2

# batch size: 2; output Ratio CC50/EC50 per entry
1. Brc1ccc(Cn2ccc3nc(Cc4ccccc4)nc-3c2)cc1
2. Brc1ccc(Cn2ccc3nc(CCc4ccccc4)nc-3c2)cc1

Result:
>2
3
